Target: factor Xa (Homo sapiens, UniProt P00742)
Sequence (P00742 235-488 limits assumed): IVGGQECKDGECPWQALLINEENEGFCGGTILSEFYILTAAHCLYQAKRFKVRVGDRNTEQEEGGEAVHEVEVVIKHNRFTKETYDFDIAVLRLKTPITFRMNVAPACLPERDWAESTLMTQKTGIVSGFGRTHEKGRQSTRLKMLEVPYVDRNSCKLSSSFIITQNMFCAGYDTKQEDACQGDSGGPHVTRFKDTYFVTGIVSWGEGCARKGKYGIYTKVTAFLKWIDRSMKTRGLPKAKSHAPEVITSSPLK
Sequence (P00742 41-179 partner limits assumed): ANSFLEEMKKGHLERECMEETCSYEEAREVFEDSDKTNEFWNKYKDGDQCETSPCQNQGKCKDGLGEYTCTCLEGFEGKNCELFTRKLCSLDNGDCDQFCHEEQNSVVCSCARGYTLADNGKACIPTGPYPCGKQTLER
Counter-ions that a name gives are not always drawn.
MEASURE: Ki (µM)
Please state the figure in µM; there is no need to write the unit.

Would you mind telling me what Ki value was observed for N=C(N)c1cccc(CN2CC[C@H](NS(=O)(=O)c3ccc(-c4ccccn4)s3)C2=O)c1 [Example 7, trifluoroacetate] ?
0.1
